assayed target: High mobility group protein B1 (Homo sapiens, UniProt P09429)
Sequence (P09429 whole entry): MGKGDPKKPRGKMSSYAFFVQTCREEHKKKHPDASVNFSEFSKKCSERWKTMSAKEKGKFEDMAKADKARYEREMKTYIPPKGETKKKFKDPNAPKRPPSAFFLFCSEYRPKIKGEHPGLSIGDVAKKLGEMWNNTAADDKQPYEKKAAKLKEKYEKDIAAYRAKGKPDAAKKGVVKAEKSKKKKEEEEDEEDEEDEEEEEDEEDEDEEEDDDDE
assay explanation: Binding affinity to N-terminal 6His-tagged HMGB1 Bj region (88 to 181 residues) (unknown origin) expressed in Escherichia coli JM109 by SPR assay
pKd: −log10 of the molar value.
measurement label: pKd

>>> print(df.to_string())
                                   molecule  result
0  CN(Cc1cnc2nc(N)nc(N)c2n1)c1ccc(C(=O)N[C@@H](CCC(=O)O)C(=O)O)cc1 [METHOTREXATE]    7.62

Just for reference, ChEMBL document CHEMBL4118100 is where these values come from.
